// reported ED50 per item
Biological target: Serotonin (5-HT) receptor (Rattus norvegicus) (UniProt P35563+P35365+P32305+P31388+Q9JJ16+P28564+P30994+Q62758+P08909+P14842+P30940+P35364+P19327+P28565)
Assay: Evaluated for receptor mediated feedback inhibition of 5-HTP formation in limbic tissue of rat brain when administered subcutaneously
Format: functional, tissue-based
Conditions: Limbic system
Numeric only. Scale: µmol/kg

Answered cases to consult:
• CCCN(CCC)C1CC1c1ccccc1OC (configuration not stated) = 0.93
• CCCN(CCC)C1CC1c1cccc(OC)c1 (configuration not stated) = 2.06
• CCN(CC)C1CC1c1ccccc1O (configuration not stated) = 0.82
• CCCN(CCC)C1CC1c1ccccc1O (stereo in doubt; 8) = 0.41
• CCN(CC)C1CC1c1cccc(O)c1 (configuration not stated) = 0.34
• CN(C)C1CC1c1cccc(O)c1 (configuration not stated) = 10.8
• CCCN(CCC)C1CC1c1ccccc1O (single isomer, unassigned; (-)) = 0.28
• CCCN(CCC)C1CC1c1cccc(O)c1 (single isomer, unassigned; (-)) = 0.34
• CN(C)C1CC1c1ccccc1O (configuration not stated) = 6.2
• CCCN(CCC)C1CC1c1cccc(O)c1 (stereo in doubt; 18) = 0.66

Lab note: next compound to report on.
Query: Name the reported ED50 value associated with the compound "CCCN(CCC)[C@@H]1CCc2cccc(O)c2C1"
Response: 0.061
